- ASSAY_SYSTEM: Cholecystokinin receptor (Mus musculus, UniProt O08786+P56481)
- TEST_NAME: Displacement of [3H]pentagastrin from Cholecystokinin receptor of mouse cerebral cortex
- Format: tissue-based
Listing of entries alongside the reported Ki.
QUANTITY_MEASURED: Ki

1. CSCC[C@H](NC(=O)[C@H](Cc1ccc(OS(=O)(=O)O)cc1)NC(=O)[C@@H](N)CC(=O)O)C(=O)NCC(=O)N[C@@H](Cc1c[nH]c2ccccc12)C(=O)N[C@@H](CCSC)C(=O)N[C@@H](CC(=O)O)C(=O)N[C@@H](Cc1ccccc1)C(N)=O (stereo in doubt; 1) [SINCALIDE]    3 nM
2. CSCC[C@H](NC(=O)[C@@H](N)Cc1c[nH]c2ccccc12)C(=O)N[C@@H](CC(=O)O)C(=O)N[C@@H](Cc1ccccc1)C(N)=O    3 nM

* * *

- ASSAY_SYSTEM: Cholecystokinin receptor (Mus musculus, UniProt O08786+P56481)
- Sequence (O08786 whole entry): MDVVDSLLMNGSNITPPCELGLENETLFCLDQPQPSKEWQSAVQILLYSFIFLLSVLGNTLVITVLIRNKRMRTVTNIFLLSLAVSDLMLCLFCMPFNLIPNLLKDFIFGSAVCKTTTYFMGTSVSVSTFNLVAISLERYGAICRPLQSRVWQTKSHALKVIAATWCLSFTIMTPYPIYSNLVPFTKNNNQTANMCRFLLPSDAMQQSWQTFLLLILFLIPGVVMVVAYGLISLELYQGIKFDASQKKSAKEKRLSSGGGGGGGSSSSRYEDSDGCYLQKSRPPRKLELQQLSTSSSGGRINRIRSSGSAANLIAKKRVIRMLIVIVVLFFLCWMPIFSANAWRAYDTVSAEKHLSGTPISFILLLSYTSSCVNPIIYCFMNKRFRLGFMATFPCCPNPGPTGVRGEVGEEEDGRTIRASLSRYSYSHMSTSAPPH
- Sequence (P56481 whole entry): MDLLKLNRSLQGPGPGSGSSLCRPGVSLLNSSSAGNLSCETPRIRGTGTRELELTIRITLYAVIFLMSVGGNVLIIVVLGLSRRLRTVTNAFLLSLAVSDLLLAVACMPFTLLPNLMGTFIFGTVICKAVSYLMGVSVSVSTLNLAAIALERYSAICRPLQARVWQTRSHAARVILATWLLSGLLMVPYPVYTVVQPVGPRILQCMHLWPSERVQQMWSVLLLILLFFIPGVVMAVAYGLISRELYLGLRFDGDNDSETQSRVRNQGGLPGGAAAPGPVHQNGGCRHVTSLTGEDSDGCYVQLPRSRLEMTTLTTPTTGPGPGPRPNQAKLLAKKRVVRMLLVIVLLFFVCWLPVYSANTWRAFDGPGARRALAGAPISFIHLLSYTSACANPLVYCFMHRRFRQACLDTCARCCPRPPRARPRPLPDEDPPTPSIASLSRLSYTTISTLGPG
- TEST_NAME: Displacement of [3H]pentagastrin from Cholecystokinin receptor of mouse cerebral cortex
- Assay type: tissue-based
Square brackets hold non-standard residues; d marks the D form. Peptide text beside a SMILES is read from it. * marks the point of attachment. sY = N[C@@H](Cc1ccc(OS(=O)(=O)O)cc1)C(=O)O; Boc = CC(C)(C)OC(=O)*
Recorded Ki for the following compounds
QUANTITY_MEASURED: Ki (µM)

1. CC(C)(C)OC(=O)N[C@@H](Cc1c[nH]c2ccccc12)C(=O)NCC(=O)N[C@@H](CC(=O)O)C(=O)N[C@@H](Cc1ccccc1)C(N)=O (Boc-WGDF-NH2)    1.6
2. CSCC[C@H](NC(=O)[C@H](Cc1ccc(OS(=O)(=O)O)cc1)NC(=O)[C@@H](N)CC(=O)O)C(=O)NCC(=O)N[C@@H](Cc1c[nH]c2ccccc12)C(=O)N[C@@H](CCSC)C(=O)N[C@@H](CC(=O)O)C(=O)N[C@@H](Cc1ccccc1)C(N)=O (stereo in doubt; 2) [SINCALIDE]    0.18
3. CSCC[C@H](NC(=O)[C@H](Cc1c[nH]c2ccccc12)NC(=O)CNC(=O)[C@H](CCSC)NC(=O)[C@@H](N)Cc1ccc(OS(=O)(=O)O)cc1)C(=O)N[C@@H](CC(=O)O)C(=O)N[C@@H](Cc1ccccc1)C(N)=O (H-[sY]MGWMDF-NH2)    0.002

* * *

- ASSAY_SYSTEM: Cholecystokinin receptor (Mus musculus, UniProt O08786+P56481)
- Sequence (O08786 whole entry): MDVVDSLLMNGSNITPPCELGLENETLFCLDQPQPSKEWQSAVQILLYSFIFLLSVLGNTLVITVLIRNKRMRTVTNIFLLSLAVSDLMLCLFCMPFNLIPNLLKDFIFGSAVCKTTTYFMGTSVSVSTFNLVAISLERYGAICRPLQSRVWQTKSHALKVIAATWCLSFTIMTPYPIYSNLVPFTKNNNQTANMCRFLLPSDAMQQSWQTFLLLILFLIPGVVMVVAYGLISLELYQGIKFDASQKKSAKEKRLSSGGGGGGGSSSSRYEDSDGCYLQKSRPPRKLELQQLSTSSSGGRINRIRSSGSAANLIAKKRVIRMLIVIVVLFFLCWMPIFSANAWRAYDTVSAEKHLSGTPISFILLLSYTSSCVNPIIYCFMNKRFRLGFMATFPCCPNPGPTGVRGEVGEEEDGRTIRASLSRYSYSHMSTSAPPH
- Sequence (P56481 whole entry): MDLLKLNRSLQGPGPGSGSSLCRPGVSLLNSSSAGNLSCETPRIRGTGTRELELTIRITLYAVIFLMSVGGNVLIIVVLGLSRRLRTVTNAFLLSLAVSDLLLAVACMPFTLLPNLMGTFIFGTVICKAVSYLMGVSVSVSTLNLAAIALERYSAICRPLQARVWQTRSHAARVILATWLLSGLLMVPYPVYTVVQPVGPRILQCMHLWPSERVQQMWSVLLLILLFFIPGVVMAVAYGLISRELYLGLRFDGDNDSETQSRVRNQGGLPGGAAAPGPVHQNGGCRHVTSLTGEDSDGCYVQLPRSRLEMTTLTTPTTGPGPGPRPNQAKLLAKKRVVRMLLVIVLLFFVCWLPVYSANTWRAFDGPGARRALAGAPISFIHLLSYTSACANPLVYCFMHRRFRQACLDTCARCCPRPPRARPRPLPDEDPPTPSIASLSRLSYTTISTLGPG
- TEST_NAME: Displacement of [3H]pentagastrin from Cholecystokinin receptor of mouse cerebral cortex
- Format: tissue-based
Peptide text beside a SMILES is read from it. * marks the point of attachment. Boc = CC(C)(C)OC(=O)*
QUANTITY_MEASURED: Ki (µM)

1. CSCC[C@H](NC(=O)[C@H](Cc1c[nH]c2ccccc12)NC(=O)CCNC(=O)OC(C)(C)C)C(=O)N[C@@H](CC(=O)O)C(=O)N[C@@H](Cc1ccccc1)C(N)=O    0.0006
2. CSCC[C@H](NC(=O)[C@H](Cc1c[nH]c2ccccc12)NC(=O)OC(C)(C)C)C(=O)NCC(=O)N[C@@H](Cc1ccccc1)C(N)=O (Boc-WMGF-NH2)    24
3. CSCC[C@H](NC(=O)[C@H](Cc1c[nH]c2ccccc12)NC(=O)OC(C)(C)C)C(=O)N[C@@H](CC(=O)O)C(=O)N[C@@H](Cc1ccccc1)C(N)=O    0.0018
4. CC(C)(C)OC(=O)N[C@@H](Cc1c[nH]c2ccccc12)C(=O)NCCC(=O)NC(Cc1ccccc1)C(N)=O (stereo partly specified)    45
5. CSCC[C@H](N)C(=O)N[C@@H](CC(=O)O)C(=O)N[C@@H](Cc1ccccc1)C(N)=O (H-Met-Asp-Phe-NH2)    100
6. CC(C)(C)OC(=O)N[C@@H](Cc1c[nH]c2ccccc12)C(=O)NCC(=O)N[C@@H](Cc1ccccc1)C(N)=O (Boc-Trp-Gly-Phe-NH2)    11
